Kindly state ABTS TEAC (Trolox equivalent antioxidant capacity) for each of the entries shown.
Assay: ABTS radical cation scavenging (decolorization) assay
Format: biochemical
Conditions: mean ± SEM, n = 3; 1 h incubation; relative to Trolox
Protocol: The ABTS assay is based on the direct quenching of the ABTS cation radical (ABTS^•+) by antioxidants. The assay is carried out by spectrophotometric determination of a decrease in absorbance of a stable dark green ABTS^•+ solution after its interaction with an antioxidant compound [56]. The measurements were performed as previously described in detail. […] Radical scavenging activity of the compounds was assessed using the ABTS radical cation (ABTS^•+) decolorization assay with some modifications. […]

* O=C1NN=C(C(F)(F)C(F)(F)C(F)(F)F)/C1=N/O | 0.19 ± 0.008 (n.d.) TEAC
* O=C1NN=C(C(F)(F)C(F)(F)C(F)(F)C(F)(F)F)/C1=N/O | 0.2 ± 0.01 (n.d.) TEAC
* O=C1NN=C(C(F)(F)F)/C1=N/O | 0.23 ± 0.01 (n.d.) TEAC
* O=C1/C(=N\O)C(C(F)(F)F)=NN1c1ccccc1 | 0.035 ± 0.002 (n.d.) TEAC
* CC1=NN(c2ccccc2)C(=O)/C1=N\O | 0.16 ± 0.02 (n.d.) TEAC

Please examine the following record next.
Input: Give the measured ABTS TEAC (Trolox equivalent antioxidant capacity) of O=C1/C(=N\O)C(C(F)(F)C(F)(F)C(F)(F)C(F)(F)F)=NN1c1ccccc1 .
Output: 0.04 ± 0.004 (n.d.) TEAC

These entries and their values trace back to paper PMC9699072.
